Biological target: human integrin αvβ6 (Homo sapiens (Human), UniProt P06756+P18564)
Sequence (P06756 31-992): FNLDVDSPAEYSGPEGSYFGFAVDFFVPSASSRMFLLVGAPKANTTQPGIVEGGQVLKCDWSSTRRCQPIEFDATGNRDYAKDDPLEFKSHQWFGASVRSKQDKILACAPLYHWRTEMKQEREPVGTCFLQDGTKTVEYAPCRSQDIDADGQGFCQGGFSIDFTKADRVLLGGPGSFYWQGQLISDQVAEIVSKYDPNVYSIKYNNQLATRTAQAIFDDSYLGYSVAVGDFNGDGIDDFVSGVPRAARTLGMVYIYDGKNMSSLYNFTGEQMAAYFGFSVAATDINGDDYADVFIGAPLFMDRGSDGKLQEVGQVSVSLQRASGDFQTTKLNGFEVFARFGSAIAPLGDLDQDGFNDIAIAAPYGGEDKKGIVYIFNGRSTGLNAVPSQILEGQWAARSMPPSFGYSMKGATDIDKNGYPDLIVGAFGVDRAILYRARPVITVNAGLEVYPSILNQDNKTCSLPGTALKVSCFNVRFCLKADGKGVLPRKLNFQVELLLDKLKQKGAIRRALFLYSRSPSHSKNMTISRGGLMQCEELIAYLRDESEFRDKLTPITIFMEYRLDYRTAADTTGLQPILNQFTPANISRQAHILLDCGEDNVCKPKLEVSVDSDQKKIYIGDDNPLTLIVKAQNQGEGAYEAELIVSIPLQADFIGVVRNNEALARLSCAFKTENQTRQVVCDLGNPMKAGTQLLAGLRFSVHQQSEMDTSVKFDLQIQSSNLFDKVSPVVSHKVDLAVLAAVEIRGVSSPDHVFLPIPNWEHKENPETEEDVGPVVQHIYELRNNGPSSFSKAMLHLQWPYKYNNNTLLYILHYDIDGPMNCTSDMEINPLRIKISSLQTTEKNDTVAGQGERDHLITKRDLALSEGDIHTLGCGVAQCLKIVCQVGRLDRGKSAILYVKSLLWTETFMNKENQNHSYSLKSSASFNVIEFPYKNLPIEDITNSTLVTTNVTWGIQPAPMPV
Sequence (P18564 22-707): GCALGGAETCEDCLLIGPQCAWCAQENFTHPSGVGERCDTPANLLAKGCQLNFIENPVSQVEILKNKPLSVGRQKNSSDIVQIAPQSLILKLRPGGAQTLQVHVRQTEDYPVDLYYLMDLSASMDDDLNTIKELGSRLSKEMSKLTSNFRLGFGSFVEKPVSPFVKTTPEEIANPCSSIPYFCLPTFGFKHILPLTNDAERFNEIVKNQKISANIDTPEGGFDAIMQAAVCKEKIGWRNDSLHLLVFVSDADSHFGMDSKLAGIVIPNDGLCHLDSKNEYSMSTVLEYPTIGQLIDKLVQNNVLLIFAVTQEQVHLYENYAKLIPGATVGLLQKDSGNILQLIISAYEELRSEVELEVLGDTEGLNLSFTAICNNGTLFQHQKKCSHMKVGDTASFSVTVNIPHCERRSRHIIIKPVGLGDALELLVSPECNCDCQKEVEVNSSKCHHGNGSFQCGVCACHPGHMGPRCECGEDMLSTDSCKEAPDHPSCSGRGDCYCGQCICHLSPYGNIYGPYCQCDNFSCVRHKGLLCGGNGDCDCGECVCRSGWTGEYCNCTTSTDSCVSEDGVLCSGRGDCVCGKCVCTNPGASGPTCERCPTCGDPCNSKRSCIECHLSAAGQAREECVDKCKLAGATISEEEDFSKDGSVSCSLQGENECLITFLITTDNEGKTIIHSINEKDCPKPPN
Assay: Proximity-based integrin receptor binding assay (ALPHASCREEN) for inhibitor potency
Conditions: inhibition of binding of TGF-b1 LAP to human integrin αvβ6; values given in ranges; listed as 65**
pIC50: −log10 of the molar value.

Compound	Tested system	pIC50
O=C(NC(CCO[C@H]1C[C@H](CCc2ccc3c(n2)NCCC3)C1)C(=O)O)c1cccc(-c2cncs2)c1 (stereo partly shown)	human integrin αvβ6 (Homo sapiens (Human), UniProt P06756+P18564)	> 7.30

====

Molecular target: human integrin αvβ6 (Homo sapiens (Human), UniProt P06756+P18564)
Test: Proximity-based integrin receptor binding assay (ALPHASCREEN) for inhibitor potency
Settings: inhibition of binding of TGF-b1 LAP to human integrin αvβ6; values given in ranges
Endpoint label: IC50

Compound	Endpoint label	Reported result
CC(C)c1ccc(C2(OC(=O)N[C@@H](CCO[C@H]3C[C@H](CCc4ccc5c(n4)NCCC5)C3)C(=O)O)CN(C(=O)OC(C)(C)C)C2)cc1	IC50	< 0.05 µM
O=C(O)C(CCO[C@H]1C[C@H](CCc2ccc3c(n2)NCCC3)C1)NC(=O)[C@H](CO)c1ccccc1 (stereo partly shown) [Compound 47]	IC50	0.25 to 1 µM
O=C(N[C@@H](CCO[C@H]1C[C@H](CCc2ccc3c(n2)NCCC3)C1)C(=O)O)c1ccc(F)cc1F	IC50	< 0.05 µM
CCC(CC)C(=O)NC(CCOCCCCc1ccc2c(n1)NCCC2)C(=O)O (stereo not shown)	IC50	0.05 to 0.25 µM
